assay: MTT relative viability, PhTERT-SEAP (H1299) cells; settings: human
ASSAY_METRIC: viability at 48 h, 220 µM
Don't forget the unit after the value.

Exam item: Item under review: `Nc1cccc(Sc2cccc3c2C(=O)c2cccc(Sc4cccc(N)c4)c2C3=O)c1` . Reported viability at 48 h, 220 µM?
Marked response: 32%

Exam item: Item under review: `O=C1c2cccc(SCc3ccccc3)c2C(=O)c2cccc(SCc3ccccc3)c21` . Reported viability at 48 h, 220 µM?
Marked response: 34%

Exam item: Item under review: `COc1ccc(CSc2cccc3c2C(=O)c2cccc(SCc4ccc(OC)cc4)c2C3=O)cc1` . Reported viability at 48 h, 220 µM?
Marked response: 42%

Exam item: Item under review: `O=C(Oc1cccc2c1C(=O)c1cccc(OC(=O)c3ccccc3)c1C2=O)c1ccccc1` . Reported viability at 48 h, 220 µM?
Marked response: 33%

----------
For each record, write down the corresponding viability at 48 h, 2 µM.
assay: MTT relative viability, PhTERT-SEAP (H1299) cells; details: human
Response body: numeric value in %, unit text excluded.

Exam item: Item under review: `O=C(CCc1ccccc1)Oc1cccc2c1C(=O)c1cccc(OC(=O)CCc3ccccc3)c1C2=O` . Reported viability at 48 h, 2 µM?
Marked response: 111

Exam item: Item under review: `CCN(CC)CCC(=O)Nc1ccc(NC(=O)CCN(CC)CC)c2c1C(=O)c1ccccc1C2=O` . Reported viability at 48 h, 2 µM?
Marked response: 92

Exam item: Item under review: CCN(CC)C(C)C(=O)Nc1ccc(NC(=O)C(C)N(CC)CC)c2c1C(=O)c1ccccc1C2=O (centres unmarked) . Reported viability at 48 h, 2 µM?
Marked response: 96

Exam item: Item under review: `O=C(Cc1cccs1)Nc1ccc(NC(=O)Cc2cccs2)c2c1C(=O)c1ccccc1C2=O` . Reported viability at 48 h, 2 µM?
Marked response: 104

Exam item: Item under review: `O=C(CCC1CCCC1)Nc1ccc(NC(=O)CCC2CCCC2)c2c1C(=O)c1ccccc1C2=O` . Reported viability at 48 h, 2 µM?
Marked response: 105

----------
tested on: transcriptional activity of hTERT; assay: SEAP reporter assay of hTERT expression, PhTERT-SEAP (hTERT-BJ1); type: cell-based, human; settings: 2.3 μM, PhTERT-SEAP (hTERT-BJ1)
For each record, write down the corresponding SEAP/vibility.

Exam item: Item under review: `O=C(CCCl)Nc1ccc(NC(=O)CCCl)c2c1C(=O)c1ccccc1C2=O` . Reported SEAP/vibility?
Marked response: 0.36

Exam item: Item under review: `O=C1c2ccccc2C(=O)c2c(NC(=O)C3CCCC3)ccc(NC(=O)C3CCCC3)c21` . Reported SEAP/vibility?
Marked response: 0.81

Exam item: Item under review: CC(Cl)C(=O)Nc1ccc(NC(=O)C(C)Cl)c2c1C(=O)c1ccccc1C2=O (stereo not shown) . Reported SEAP/vibility?
Marked response: 0.97

Exam item: Item under review: `O=C(Nc1ccc(NC(=O)c2ccco2)c2c1C(=O)c1ccccc1C2=O)c1ccco1` . Reported SEAP/vibility?
Marked response: 0.43

----------
ASSAY_METRIC: melting point

Exam item: Item under review: `O=C(CCC1CCCC1)Nc1ccc(NC(=O)CCC2CCCC2)c2c1C(=O)c1ccccc1C2=O` . Reported melting point?
Marked response: 166 to 167 °C

Exam item: Item under review: `CC(C)(C)C(=O)Oc1cccc2c1C(=O)c1cccc(OC(=O)C(C)(C)C)c1C2=O` . Reported melting point?
Marked response: 166 to 167 °C

Exam item: Item under review: `CCC(=O)Oc1cccc2c1C(=O)c1cccc(OC(=O)CC)c1C2=O` . Reported melting point?
Marked response: 230 to 231 °C

Exam item: Item under review: `CCCCCC(=O)Oc1cccc2c1C(=O)c1cccc(OC(=O)CCCCC)c1C2=O` . Reported melting point?
Marked response: 183 to 184 °C

Exam item: Item under review: `O=C1c2cccc(SCCC(O)O)c2C(=O)c2cccc(SCCC(O)O)c21` . Reported melting point?
Marked response: 238 to 239 °C

Exam item: Item under review: `Cc1ccccc1C(=O)Oc1cccc2c1C(=O)c1cccc(OC(=O)c3ccccc3C)c1C2=O` . Reported melting point?
Marked response: 262 to 263 °C

Exam item: Item under review: `CCCC(=O)Oc1cccc2c1C(=O)c1cccc(OC(=O)CCC)c1C2=O` . Reported melting point?
Marked response: 211 to 213 °C

Exam item: Item under review: `NCCCCNc1cccc2c1C(=O)c1cccc(NCCCCN)c1C2=O` . Reported melting point?
Marked response: 208 to 210 °C

Exam item: Item under review: `O=C1c2cccc(NCc3ccccc3)c2C(=O)c2cccc(NCc3ccccc3)c21` . Reported melting point?
Marked response: 218 to 220 °C

Exam item: Item under review: `O=C(CCCl)Nc1ccc(NC(=O)CCCl)c2c1C(=O)c1ccccc1C2=O` . Reported melting point?
Marked response: 230 to 231 °C

Exam item: Item under review: `Nc1ccc(Sc2cccc3c2C(=O)c2cccc(Sc4ccc(N)cc4)c2C3=O)cc1` . Reported melting point?
Marked response: 364 to 365 °C

----------
assay: MTT relative viability, PhTERT-SEAP (H1299) cells; settings: human
For each record, write down the corresponding viability at 48 h, 203 µM.
Response body: numeric value in %, unit text excluded.

Exam item: Item under review: CCN(CC)C(C)C(=O)Nc1ccc(NC(=O)C(C)N(CC)CC)c2c1C(=O)c1ccccc1C2=O (centres unmarked) [VI35] . Reported viability at 48 h, 203 µM?
Marked response: 75

Exam item: Item under review: CCN(CC)CCC(=O)Nc1ccc(NC(=O)CCN(CC)CC)c2c1C(=O)c1ccccc1C2=O [VI34] . Reported viability at 48 h, 203 µM?
Marked response: 1

----------
assay: MTT relative viability, PhTERT-SEAP (hTERT-BJ1) cells; settings: human
For each record, write down the corresponding viability at 48 h, 28 µM.
Response body: numeric value in %, unit text excluded.

Exam item: Item under review: CCCSc1cccc2c1C(=O)c1cccc(SCCC)c1C2=O [IIc, 1,5-Bis(propylthio)-anthraquinone] . Reported viability at 48 h, 28 µM?
Marked response: 97

Exam item: Item under review: CCC(=O)Oc1cccc2c1C(=O)c1cccc(OC(=O)CC)c1C2=O [IIIa, 1,5-Bis(propionyloxy)-anthraquinone] . Reported viability at 48 h, 28 µM?
Marked response: 109

Exam item: Item under review: O=C1c2cccc(SCCO)c2C(=O)c2cccc(SCCO)c21 [IIb, 1,5-Bis(hydroxyethylthio)-anthraquinone] . Reported viability at 48 h, 28 µM?
Marked response: 49

----------
assay: MTT relative viability, PhTERT-SEAP (hTERT-BJ1) cells; details: human
ASSAY_METRIC: viability at 48 h, 193 µM (%)
Response body: numeric value in %, unit text excluded.

Exam item: Item under review: O=C1c2c(O)ccc(O)c2C(=O)c2c(NCCNCCO)ccc(NCCNCCO)c21 [Mitoxantrone, reference compound] . Reported viability at 48 h, 193 µM?
Marked response: 10

----------
For each record, write down the corresponding viability at 48 h, 22 µM.
test: MTT relative viability, PCMV-SEAP (hTERT-BJ1) cells; format: cell-based; conditions: human, stable PCMV-SEAP reporter clone, 22 μM
Response body: numeric value in %, unit text excluded.

Exam item: Item under review: `Nc1ccccc1Sc1cccc2c1C(=O)c1cccc(Sc3ccccc3N)c1C2=O` . Reported viability at 48 h, 22 µM?
Marked response: 109

Exam item: Item under review: `COc1ccc(CSc2cccc3c2C(=O)c2cccc(SCc4ccc(OC)cc4)c2C3=O)cc1` . Reported viability at 48 h, 22 µM?
Marked response: 67

----------
test system: non-small-cell lung cancer cells H1299; test: MTT relative viability, PhTERT-SEAP (H1299) cells; conditions: 207 μM, PhTERT-SEAP(hTERT-H1299)
ASSAY_METRIC: Relative MTT viability (%)
Response body: numeric value in %, unit text excluded.

Exam item: Item under review: O=C(Nc1ccc(NC(=O)c2ccccc2F)c2c1C(=O)c1ccccc1C2=O)c1ccccc1F [VI10] . Reported Relative MTT viability (%)?
Marked response: 77

Exam item: Item under review: O=C(Nc1ccc(NC(=O)c2cccc(F)c2)c2c1C(=O)c1ccccc1C2=O)c1cccc(F)c1 [VI12] . Reported Relative MTT viability (%)?
Marked response: 66

Exam item: Item under review: Cc1cc(C(=O)Nc2ccc(NC(=O)c3cc(C)oc3C)c3c2C(=O)c2ccccc2C3=O)c(C)o1 [VI26] . Reported Relative MTT viability (%)?
Marked response: 47

Exam item: Item under review: O=C(Nc1ccc(NC(=O)c2ccc(F)cc2)c2c1C(=O)c1ccccc1C2=O)c1ccc(F)cc1 [VI30] . Reported Relative MTT viability (%)?
Marked response: 89
